- ASSAY OVERVIEW: Binding affinity to immobilized amyloid beta 25-35 by Surface plasmon resonance
Where a SMILES comes first, the peptide text is derived from it. [ ]: non-standard residue; d: D form. αMeP = C[C@@]1(C(=O)O)CCCN1; Aze = O=C(O)[C@@H]1CCN1; Aib = CC(C)(N)C(=O)O
ASSAY METRIC: Kd (µM)

>  <MOLECULE>
CC[C@H](C)[C@H](N)C(=O)N[C@H](C(=O)N1CCC[C@H]1C(=O)N[C@@H](CC(C)C)C(=O)N[C@@H](CCSC)C(N)=O)[C@@H](C)CC (H-IIPLM-NH2)

>  <UNIT TAG>
µM

>  <Kd>
4490

$$$$

P: CC[C@H](C)[C@H](N)C(=O)N[C@H](C(=O)N1CC[C@H]1C(=O)N[C@@H](CC(C)C)C(=O)N[C@@H](CCSC)C(N)=O)[C@@H](C)CC (H-II[Aze]LM-NH2)
Q: CC[C@H](C)[C@H](N)C(=O)N[C@H](C(=O)N1CCC[C@@]1(C)C(=O)N[C@@H](CC(C)C)C(=O)N[C@@H](CCSC)C(N)=O)[C@@H](C)CC (H-II[αMeP]LM-NH2)
R: Nc1c(/N=N/c2ccc(-c3ccc(/N=N/c4cc(S(=O)(=O)O)c5ccccc5c4N)cc3)cc2)cc(S(=O)(=O)O)c2ccccc12
S: CC[C@H](C)[C@H](N)C(=O)N[C@H](C(=O)NC(C)(C)C(=O)N[C@@H](CC(C)C)C(=O)N[C@@H](CCSC)C(N)=O)[C@@H](C)CC (H-II[Aib]LM-NH2)
Problem: Task for the reader: rank each entry by its Kd, from the minimum upward. Please, when replying, give the labels in the order that was requested.
Result: R, Q, S, P
